Values from patent US20220306764A1

// reported kon per item
biological target: T1, purified extracellular domain of PSMA (prostate-specific membrane antigen), residues 44-750 (UniProt Q04609 44-750); assay: SPR (ProteOn XPR36), NB immobilised, soluble PSMA as analyte, 1:1 Langmuir, 25 C
T1 construct: range 44-750; The limits 44-750 are stated for the immunogen; Docking used PDB 1Z8L; also called soluble PSMA; monomeric PSMA
T1 sequence (Q04609 44-750 limits assumed): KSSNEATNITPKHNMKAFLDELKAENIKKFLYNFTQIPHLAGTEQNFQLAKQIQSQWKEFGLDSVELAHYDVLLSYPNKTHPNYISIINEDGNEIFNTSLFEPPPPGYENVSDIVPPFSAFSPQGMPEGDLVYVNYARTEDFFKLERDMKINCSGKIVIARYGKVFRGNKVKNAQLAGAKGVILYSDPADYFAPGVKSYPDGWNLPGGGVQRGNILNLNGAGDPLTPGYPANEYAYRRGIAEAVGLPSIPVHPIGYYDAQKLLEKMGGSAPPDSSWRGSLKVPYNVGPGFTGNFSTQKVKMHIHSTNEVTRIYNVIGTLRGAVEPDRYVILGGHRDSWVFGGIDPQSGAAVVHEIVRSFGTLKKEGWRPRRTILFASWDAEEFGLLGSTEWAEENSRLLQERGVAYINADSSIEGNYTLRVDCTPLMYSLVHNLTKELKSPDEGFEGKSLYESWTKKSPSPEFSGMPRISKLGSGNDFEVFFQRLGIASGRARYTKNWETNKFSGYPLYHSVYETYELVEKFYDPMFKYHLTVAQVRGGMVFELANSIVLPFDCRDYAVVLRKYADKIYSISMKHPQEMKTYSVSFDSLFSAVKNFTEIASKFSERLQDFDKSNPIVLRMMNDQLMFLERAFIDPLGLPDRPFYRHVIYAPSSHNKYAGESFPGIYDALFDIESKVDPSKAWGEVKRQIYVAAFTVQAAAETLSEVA
Quick reminder: number only, in M⁻¹ s⁻¹, skip the unit.

NB7 (VHH, also called nanobody 7; anti-PSMA NB7; not shown: His tag (NBs purified on Ni-NTA and detected with anti-His)) VHH: QVQLQESGGGSVQAGGSLRLSCTAPGYTDSNYYMSWFRQAPGKEREWVAGVNTGRGSTSYADSVKGRFTISQDNAKNTMFLQMNSLKPEDTAIYYCAVAACHFCDSLPKTQDEYILWGQGTQVTVSS; 710000
NB8 (VHH, also called nanobody 8; PDB 6XXO; not shown: His tag (NBs purified on Ni-NTA and detected with anti-His)) VHH: QVQLQESGGGSVQAGGSLRLSCARSGWPYSTYSMNWFRQAPGKEREAVAGISSTMSGIIFAESKAGQFTISQDNAKNTVYLQMNNLKPEDTAIYYCAARRDYSLSSSSDDFDYWGQGTQVTVSS; 20000
NB13 (VHH, also called nanobody 13; not shown: His tag (NBs purified on Ni-NTA and detected with anti-His)) VHH: QVQLQESGGGSVQTGGSLRLSCAASGYTASFSWIGYFRQAPGKEREGVAVINVGVGSTYYADSVKGRFTISRDNTENTISLEMNSLKPEDTGLYYCAGSLRWSRPPNPISEDAYNYWGQGTQVTVSS; 36000

Next item in the queue.
Qu. kon lookup needed for NB37 (VHH, also called nanobody 37; PDB 6XXP; not shown: His tag (NBs purified on Ni-NTA and detected with anti-His)) VHH: QVQLQESGGGSVEAGGSLRLSCARSGWPYSTYSMNWFRQAPGKEREAVAGISSTMSGIIFAESKAGQFTISQDNAKNTVYLQMNNLKPEDTAIYYCAARRDYSLSSSSDDFDYWGQGTQVTVSS , thanks.
Ans. 22000
